Assay: Inhibition c-Met […] mutant
result type: pKi
Answers are plain numbers, as −log10 of the molar value.

What value of measured pKi is listed for COc1ccc2c(Oc3ccc(NC(=O)c4c(C)n(CC(C)(C)O)n(-c5ccccc5)c4=O)nc3)ccnc2c1 ?
8.96

====

Test: Intrinsic clearance in cynomolgus monkey liver microsome
Type: ADME, Macaca fascicularis
Conditions: liver microsomes
result type: microsomal CLint (µL/min/mg)
One number for each entry, in µL/min/mg.

What value of measured microsomal CLint is listed for COc1ccc2c(Oc3ccc(NC(=O)c4c(C)n(CC(C)(C)O)n(-c5ccccc5)c4=O)nc3)ccnc2c1 ?
8

====

Test: Clearance in BALB/c mouse at 1 mg/kg, iv or 10 mg/kg, po
Format: ADME, organism-based
Conditions: in vivo
result type: clearance (mL/min/kg)
Answers are plain numbers, in mL/min/kg.

What value of measured clearance is listed for COc1ccc2c(Oc3ccc(NC(=O)c4c(C)n(CC(C)(C)O)n(-c5ccccc5)c4=O)nc3)ccnc2c1 ?
2.67

====

Target: Hepatocyte growth factor receptor (Homo sapiens, UniProt P08581)
Experiment: Inhibition of human c-Met by HTRF assay
result type: Ki (nM)
Give bare numbers, in nM.

What value of measured Ki is listed for COc1ccc2c(Oc3ccc(NC(=O)c4c(C)n(CC(C)(C)O)n(-c5ccccc5)c4=O)nc3)ccnc2c1 ?
1.2

====

Target: Tyrosine-protein kinase ITK/TSK (Homo sapiens)
Sequence (Q08881 whole entry): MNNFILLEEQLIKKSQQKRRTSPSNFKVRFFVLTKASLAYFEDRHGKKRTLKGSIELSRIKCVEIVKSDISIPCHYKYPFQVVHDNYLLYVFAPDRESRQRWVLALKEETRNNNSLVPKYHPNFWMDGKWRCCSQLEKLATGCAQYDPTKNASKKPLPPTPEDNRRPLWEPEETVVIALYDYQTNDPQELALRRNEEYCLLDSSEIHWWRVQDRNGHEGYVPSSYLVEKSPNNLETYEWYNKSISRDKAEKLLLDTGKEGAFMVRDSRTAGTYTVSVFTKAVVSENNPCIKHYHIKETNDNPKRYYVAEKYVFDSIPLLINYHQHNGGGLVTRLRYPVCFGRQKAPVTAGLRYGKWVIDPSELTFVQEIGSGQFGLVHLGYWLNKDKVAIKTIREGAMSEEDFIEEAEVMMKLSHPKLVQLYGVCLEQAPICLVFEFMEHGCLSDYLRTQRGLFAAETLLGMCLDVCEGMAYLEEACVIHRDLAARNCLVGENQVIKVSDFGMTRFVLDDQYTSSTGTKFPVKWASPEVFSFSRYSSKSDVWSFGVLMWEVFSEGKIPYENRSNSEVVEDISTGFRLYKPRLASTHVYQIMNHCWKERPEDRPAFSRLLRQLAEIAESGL
result type: IC50 (nM)
Give bare numbers, in nM.

What value of measured IC50 is listed for COc1ccc2c(Oc3ccc(NC(=O)c4c(C)n(CC(C)(C)O)n(-c5ccccc5)c4=O)nc3)ccnc2c1 ?
62

====

Experiment: Intrinsic clearance in BALB/c mouse liver microsome
Format: ADME
Details: liver microsomes
Assign microsomal CLint to each entry below.

Some solved entries appear below for comparison.
structure=COc1ccc2c(Oc3ccc(NC(=O)c4c(C)n(C[C@H](C)O)n(-c5ccccc5)c4=O)cc3F)ccnc2c1 result_type="microsomal CLint" test_result="< 45 µL/min/mg"
structure=COc1ccc2c(Oc3ccc(NC(=O)c4c(C)n(C[C@@H](C)O)n(-c5ccccc5)c4=O)cc3F)ccnc2c1 result_type="microsomal CLint" test_result="< 45 µL/min/mg"

Below: the item to evaluate.
What value of measured microsomal CLint is listed for COc1ccc2c(Oc3ccc(NC(=O)c4c(C)n(CC(C)(C)O)n(-c5ccccc5)c4=O)nc3)ccnc2c1 ?
< 5 µL/min/mg

====

Experiment: Clearance in Beagle dog at 1 mg/kg, iv or 10 mg/kg, po
Assay type: ADME, organism-based, Canis lupus familiaris
Conditions: in vivo
result type: clearance
Give the figure together with its unit, number first.

What value of measured clearance is listed for COc1ccc2c(Oc3ccc(NC(=O)c4c(C)n(CC(C)(C)O)n(-c5ccccc5)c4=O)nc3)ccnc2c1 ?
5.67 mL/min/kg

====

Biological target: Receptor-type tyrosine-protein kinase FLT3 (Homo sapiens, UniProt P36888)
result type: pIC50
One number for each entry, as −log10 of the molar value.

What value of measured pIC50 is listed for COc1ccc2c(Oc3ccc(NC(=O)c4c(C)n(CC(C)(C)O)n(-c5ccccc5)c4=O)nc3)ccnc2c1 ?
6.41

====

Experiment: Half life in cynomolgus monkey at 1 mg/kg, iv or 10 mg/kg, po
Format: ADME, organism-based, Macaca fascicularis
Settings: in vivo
result type: half-life (h)
Give bare numbers, in h.

What value of measured half-life is listed for COc1ccc2c(Oc3ccc(NC(=O)c4c(C)n(CC(C)(C)O)n(-c5ccccc5)c4=O)nc3)ccnc2c1 ?
5.7

====

Assay: Permeability from apical to basolateral side of human Caco-2 cell monolayer
Type: ADME, cell-based
Conditions: read-out: permeability
result type: Papp A→B (nm/s)
Answers are plain numbers, in nm/s.

What value of measured Papp A→B is listed for COc1ccc2c(Oc3ccc(NC(=O)c4c(C)n(CC(C)(C)O)n(-c5ccccc5)c4=O)nc3)ccnc2c1 ?
320

====

Test: Oral bioavailability in Beagle dog at 10 mg/kg
Type: ADME, organism-based, Canis lupus familiaris
Conditions: in vivo
result type: bioavailability (%)
Numbers only, in %.

What value of measured bioavailability is listed for COc1ccc2c(Oc3ccc(NC(=O)c4c(C)n(CC(C)(C)O)n(-c5ccccc5)c4=O)nc3)ccnc2c1 ?
100

====

Assay: Volume of distribution at steady state in BALB/c mouse at 1 mg/kg, iv or 10 mg/kg, po
Type: ADME, organism-based
Details: in vivo, read-out: Vdss
result type: Vd (L/kg)
Numbers only, in L/kg.

What value of measured Vd is listed for COc1ccc2c(Oc3ccc(NC(=O)c4c(C)n(CC(C)(C)O)n(-c5ccccc5)c4=O)nc3)ccnc2c1 ?
0.31

====

Test: Intrinsic clearance in human liver microsome
Type: ADME
Conditions: liver microsomes
result type: microsomal CLint

structure=COc1ccc2c(Oc3ccc(NC(=O)c4c(C)n(CC(C)(C)O)n(-c5ccccc5)c4=O)nc3)ccnc2c1 test_result="18 µL/min/mg"
structure=COc1ccc2c(Oc3ccc(NC(=O)c4c(C)n(C[C@@H](C)O)n(-c5ccccc5)c4=O)cc3F)ccnc2c1 test_result="< 55 µL/min/mg"

What value of measured microsomal CLint is listed for COc1ccc2c(Oc3ccc(NC(=O)c4c(C)n(C[C@H](C)O)n(-c5ccccc5)c4=O)cc3F)ccnc2c1 ?
< 55 µL/min/mg

====

Target: Tyrosine-protein kinase Fes/Fps (Homo sapiens, UniProt P07332)
result type: IC50 (nM)
Give bare numbers, in nM.

What value of measured IC50 is listed for COc1ccc2c(Oc3ccc(NC(=O)c4c(C)n(CC(C)(C)O)n(-c5ccccc5)c4=O)nc3)ccnc2c1 ?
706

====

Experiment: Half life in Beagle dog at 1 mg/kg, iv or 10 mg/kg, po
Type: ADME, organism-based, Canis lupus familiaris
Details: in vivo
result type: half-life (h)
Numbers only, in h.

What value of measured half-life is listed for COc1ccc2c(Oc3ccc(NC(=O)c4c(C)n(CC(C)(C)O)n(-c5ccccc5)c4=O)nc3)ccnc2c1 ?
2.8

====

Experiment: Clearance in cynomolgus monkey at 1 mg/kg, iv or 10 mg/kg, po
Assay type: ADME, organism-based, Macaca fascicularis
Settings: in vivo
result type: clearance (mL/min/kg)
Give bare numbers, in mL/min/kg.

What value of measured clearance is listed for COc1ccc2c(Oc3ccc(NC(=O)c4c(C)n(CC(C)(C)O)n(-c5ccccc5)c4=O)nc3)ccnc2c1 ?
1.67

====

Target: Tyrosine-protein kinase Lyn (Homo sapiens)
result type: pIC50
Answers are plain numbers, as −log10 of the molar value.

What value of measured pIC50 is listed for COc1ccc2c(Oc3ccc(NC(=O)c4c(C)n(CC(C)(C)O)n(-c5ccccc5)c4=O)nc3)ccnc2c1 ?
6.30

====

Assay: Clearance in rat
Assay type: ADME, organism-based
Settings: in vivo
Assign clearance to each entry below.

structure=COc1ccc2c(Oc3ccc(NC(=O)c4c(C)n(C[C@@H](C)O)n(-c5ccccc5)c4=O)cc3F)ccnc2c1 result_type=clearance test_result="< 3.33 mL/min/kg"

Below: the item to evaluate.
What value of measured clearance is listed for COc1ccc2c(Oc3ccc(NC(=O)c4c(C)n(C[C@H](C)O)n(-c5ccccc5)c4=O)cc3F)ccnc2c1 ?
< 3.33 mL/min/kg

====

Experiment: Half life in Sprague-Dawley rat at 1 mg/kg, iv or 10 mg/kg, po
Type: ADME, organism-based
Conditions: in vivo
result type: half-life (h)
Answers are plain numbers, in h.

What value of measured half-life is listed for COc1ccc2c(Oc3ccc(NC(=O)c4c(C)n(CC(C)(C)O)n(-c5ccccc5)c4=O)nc3)ccnc2c1 ?
1

Origin of measurements: ChEMBL document CHEMBL1157538
